Kindly supply the reported normalized RNA/DNA level with ligand (log10) values for the records listed here.
B1: library; a variant is named by its letters at N, in order (parent)
chain: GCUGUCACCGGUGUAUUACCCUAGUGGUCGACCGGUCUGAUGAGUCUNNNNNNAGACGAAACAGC

Variants of: B1
Assay Protocol: normalized RNA/DNA level with ligand (relative to sTRSVctl = 100) (log10 (% of sTRSVctl)); ligand: hypoxanthine (xanthine aptamer); higher = less ribozyme self-cleavage, higher mRNA level
Test Settings: ligand concentration (+) RNA-Seq: 5 mM, HEK293T, reporter: mCherry (pCS4076), ligand present: yes

// worked examples, normalized RNA/DNA level with ligand (log10) included
> print(dat)
                              sequence.text  recorded.value
1  GCUGUCACCGGUGUAUUACCCUAGUGGUCGACCGGUCUGAUGAGUCUAACAUAAGACGAAACAGC            1.89
2  GCUGUCACCGGUGUAUUACCCUAGUGGUCGACCGGUCUGAUGAGUCUUGCGCCAGACGAAACAGC            1.99
3  GCUGUCACCGGUGUAUUACCCUAGUGGUCGACCGGUCUGAUGAGUCUAGACACAGACGAAACAGC            1.92
4  GCUGUCACCGGUGUAUUACCCUAGUGGUCGACCGGUCUGAUGAGUCUUUAUAUAGACGAAACAGC            1.93
5  GCUGUCACCGGUGUAUUACCCUAGUGGUCGACCGGUCUGAUGAGUCUCAGAUCAGACGAAACAGC            1.98
6  GCUGUCACCGGUGUAUUACCCUAGUGGUCGACCGGUCUGAUGAGUCUUCGGUAAGACGAAACAGC            1.91
7  GCUGUCACCGGUGUAUUACCCUAGUGGUCGACCGGUCUGAUGAGUCUCAGUAGAGACGAAACAGC            1.91
8  GCUGUCACCGGUGUAUUACCCUAGUGGUCGACCGGUCUGAUGAGUCUGUCUAGAGACGAAACAGC            1.87

# batch: return normalized RNA/DNA level with ligand (log10) for each of the 7 variants below
1. GCUGUCACCGGUGUAUUACCCUAGUGGUCGACCGGUCUGAUGAGUCUCGCCGCAGACGAAACAGC
2. GCUGUCACCGGUGUAUUACCCUAGUGGUCGACCGGUCUGAUGAGUCUACGCUUAGACGAAACAGC
3. GCUGUCACCGGUGUAUUACCCUAGUGGUCGACCGGUCUGAUGAGUCUAGUUGCAGACGAAACAGC
4. GCUGUCACCGGUGUAUUACCCUAGUGGUCGACCGGUCUGAUGAGUCUUCAUGUAGACGAAACAGC
5. GCUGUCACCGGUGUAUUACCCUAGUGGUCGACCGGUCUGAUGAGUCUCCGACGAGACGAAACAGC
6. GCUGUCACCGGUGUAUUACCCUAGUGGUCGACCGGUCUGAUGAGUCUCAACGCAGACGAAACAGC
7. GCUGUCACCGGUGUAUUACCCUAGUGGUCGACCGGUCUGAUGAGUCUAUCUCCAGACGAAACAGC

Result:
1.97
1.91
1.91
1.92
1.92
1.92
1.97

# batch: return normalized RNA/DNA level with ligand (log10) for each of the 3 variants below
1. GCUGUCACCGGUGUAUUACCCUAGUGGUCGACCGGUCUGAUGAGUCUAGUUGAAGACGAAACAGC
2. GCUGUCACCGGUGUAUUACCCUAGUGGUCGACCGGUCUGAUGAGUCUCUCGGGAGACGAAACAGC
3. GCUGUCACCGGUGUAUUACCCUAGUGGUCGACCGGUCUGAUGAGUCUCUCAGAAGACGAAACAGC

Result:
1.92
1.92
1.97
